test system: NCI-H226; experiment: NCI tumour cell line growth inhibition, 48 h
Activity calls are given as the source filed them. Rule as the data show it: active = GI50 up to about 1.1 µM and inactive = higher.
Experimental Endpoint: GI50

Guide cases for GI50, answers given:
O=c1[nH]nc(Cc2ccccc2)n1/N=C/c1ccc([N+](=O)[O-])cc1 = > 100 µM (inactive)
O=C(Nc1nc2ncn(CCOC(=O)c3ccccc3)c2c(=S)[nH]1)c1ccccc1 = 47.5 µM (inactive)
Cc1ccc(S(=O)(=O)C2=c3ncccc3=C3C(=O)c4ccccc4C(=O)C32)cc1 (stereo not given) = > 29.9 µM (inactive)
CCCCON1C[C@@H](O)C(O)[C@@H](O)C1 (stereo not given in full) = > 100 µM (inactive)
Oc1cc(-c2ccccn2)nc2cccc(F)c12 = > 100 µM (inactive)
COC(=O)c1c(O)ccc2c1c1c(n2Cc2ccccc2Cl)C(=O)c2ccccc2C1=O = 17.7 µM (inactive)
COc1cc(C)c2c(c1C=O)Oc1c(c(C)c(O)c3c1C(O)OC3=O)OC2=O (stereo not given) = 37.6 µM (inactive)
COC(=O)CCC12CCC(O1)c1ccccc12 (stereo not given) = > 100 µM (inactive)
C/C(=C1\C(=O)C(c2ccccc2)N(c2ccccc2)C1=O)c1ccc(Cl)cc1 (stereo not given) = 18.4 µM (inactive)
Cc1cc(Cl)ccc1NC(=O)C(=O)Cc1occc(=O)c1O = > 100 µM (inactive)

Here C=C(CC[C@@H](C)[C@H]1CC[C@@]2(C)C3=C(CC[C@]12C)[C@@]1(C)CC[C@H](O)[C@@H](C)C1CC3)C(C)C (stereo not given in full) was tested on NCI-H226, and its GI50 came to 1.81 µM (inactive)

Entry CO/C=C(/C(=O)OC)[C@@H]1C[C@@H]1c1ccc2ccccc2c1 ; assay system NCI-H226; GI50 recorded at 29.2 µM (inactive)

GI50 of O=C(CCC(=O)N/N=C/c1ccccc1O)N/N=C/c1ccccc1O , assay on NCI-H226, is > 100 µM (inactive)

###

system: OVCAR-4; test: NCI tumour cell line growth inhibition, 48 h
The source made the active and inactive calls. Cut-off read from the data, not from the text of the source: active = GI50 up to about 1.1 µM and inactive = higher.
Return exactly one item of 1.0 = active, 0.0 = inactive

O=S1(=O)NN=C(NCc2ccc(F)cc2)c2ccccc21 = 0.0
CC(C)C(Br)C(=O)NCC(=O)O (stereo not drawn) = 0.0

Query compound follows.
Query: Recorded call for CC1C2=CC=C(O2)C(C)(C)C2=CC=C(O2)C(C)(C)C2=CC=C(O2)C(C)(C)C2=CC=C1O2 ?
Reply: 0.0

###

tested on: NCI-H460; test: NCI tumour cell line growth inhibition, 48 h
Calls of active or inactive are those of the source. Cut-off read from the data, not from the text of the source: active = GI50 up to about 1.1 µM and inactive = higher.
Entry note: the call must match one of active, inactive

Check out these entries, answers already filled in.
CC1C(c2ccc(N(C)C)cc2)c2cc3c(cc2OC1N1CCCC1)OCO3 (configuration not stated) = inactive
O=[N+]([O-])c1cccc(C2=NOC3C4CCC(C4)C23)c1 (configuration not stated) = inactive
CC(C)(C)C=C=C(C(C)(C)C)P(=O)(O)O = inactive
C/C(=N/NC(=S)N(C)C)c1ccccc1O = inactive
CCCCCCSC[C@H](OC(C)=O)[C@@H](OC(C)=O)[C@@H](OC(C)=O)[C@@H](COC(C)=O)OC(C)=O = inactive
COc1ccc(Nc2[nH]c(C(C)=O)c(N)c2C(=S)Nc2ccccc2)cc1 = inactive
O=C(COc1ccccc1Cl)N1N=C(c2ccccc2)CC1(O)c1ccccc1 (configuration not stated) = inactive
Cc1ccc(C)c2c1n1c(=O)n(C)c(=O)n21 = inactive
O=C(Cc1ccccc1)N/N=C(\C1=Nc2ccc([N+](=O)[O-])cc2NC1O)C(O)c1ccc([N+](=O)[O-])cc1 (configuration not stated) = inactive
Cc1ccc(/N=N/N(C)C(=O)C(C)N)cc1 (configuration not stated) = inactive

# evaluate next
Query: // outcome(item) with item = C[Si](C)(OCCS(=O)(=O)O)C1S(=O)(=O)OCCOS1(=O)=O
Reply: inactive

###

# reported GI50; entries follow
tested on: HOP-62; assay: NCI tumour cell line growth inhibition, 48 h
Calls of active or inactive are those of the source. Rule as the data show it: active = GI50 up to about 1.1 µM and inactive = higher.

Here are 5 molecules together with their reported answers.
NCCSc1nc(N)c2ncn(C3OC(CO)C(O)C3O)c2n1 (stereo unspecified) = > 100 µM (inactive)
Cc1cc(Cl)ccc1NC(=O)C(=O)Cc1occc(=O)c1O = > 100 µM (inactive)
COc1ccc(C23OCC(Cc4cc(OC)c(OC)cc42)C3COC(C)=O)cc1OC (stereo unspecified) = > 100 µM (inactive)
CCCc1cc(-c2ccc(-c3cc(CCC)c(C=O)[nH]3)s2)[nH]c1C=O = > 100 µM (inactive)
Brc1ccc(C2(N3CCCCC3)CCCCC2)s1 = 57.5 µM (inactive)

Now let's try a different one.
So for C=CCCn1nc(-c2ccccc2)oc1=O , the logged GI50 turned out to be > 100 µM (inactive)

###

tested on: Malme-3M; assay: NCI tumour cell line growth inhibition, 48 h
Active and inactive are the calls of the source. Rule as the data show it: active = GI50 up to about 1.1 µM and inactive = higher.
Write down one outcome, taken from class 1 = active, class 0 = inactive

Cc1ccc(C)c2c1n1c(=O)n(C)c(=O)n21 = class 0
Cc1ccc(S(=O)(=O)NNC(=O)Nc2cccc(C(F)(F)F)c2)cc1 = class 0
COC(=O)[C@@H](Nc1ccccc1)[C@@]1(C(=O)OC)SC12c1ccccc1-c1ccccc12 = class 0
Cc1cn2c(=O)c3ccccc3nc2s1 = class 0
COC(=O)CCC(NC(=S)N/N=C(\C)c1cnc2ccccc2n1)C(=O)OC (stereo not given) = class 0

Query: # outcome recorded in this test, key = O=C(/C=C/c1c(O)ccc2ccccc12)c1cccc2ccccc12
Reply: class 0

Query: Dear colleague, could you share the recorded outcome for BrC1(Br)C2/C=C\CCCCC21 (stereo not given) when you have a moment?
Reply: class 0

Query: Record lookup: outcome of this test for N#C/C(=C\c1ccc(O)cc1)C(N)=O ?
Reply: class 0

Query: Test call, this molecule: Cc1ccc(C(=O)N(C(C)C)C(C)C)cc1/N=N/N(C)C
Reply: class 0

Query: Entry CC(=O)c1ccc2c(c1)CC1(C2)Cc2cc3c(c(C(=O)O)c2C1)CCC3 (stereo not given) : call = ?
Reply: class 0

###

test system: DMS-114; experiment: NCI tumour cell line growth inhibition, 48 h
Calls of active or inactive are those of the source. Cut-off read from the data, not from the text of the source: active = GI50 up to about 1.1 µM and inactive = higher.
Your response should consist of one outcome taken from y (active), n (inactive)

Below are worked cases with known answers.
CCc1cccc(C(C)CC)c1NC(=O)C(=O)Cc1nc2ccccc2o1 (stereo not given) = n
COc1ccc2[nH]cc(/C=C(/C)c3ccncc3)c2c1 = n
CC(=O)O[C@]1(C(C)=O)CC[C@H]2[C@@H]3C[C@H](C)C4=CC(=O)C=C[C@]4(C)[C@@]3(F)[C@@H](O)C[C@@]21C [FLUOROMETHOLONE ACETATE] = n
N#CC1(C#N)C(C#N)(C#N)C12CCCCCC2 = n

Query: I would be grateful if you could indicate the recorded call for c1ccc([P+](c2ccccc2)(c2ccccc2)C2Sc3ccccc3S2)cc1 .
Reply: n

Query: Given CN(C)c1ccc(/C=C/C(=O)C(C)(C)C)cc1Br , state the outcome it received in this test.
Reply: n

Query: Identify the outcome logged in this assay for the compound shown: CCCCCCCC/C=C/CCCCCCCC(=O)N(O)C1CC(n2cc(C)c(=O)[nH]c2=O)OC1CO (stereo not given)
Reply: n

###

system: 786-0; experiment: NCI tumour cell line growth inhibition, 48 h
Calls of active or inactive are those of the source. No stated cut-off is given here; in the data, active = GI50 up to about 1.1 µM and inactive = higher. Residues, ends and D or L forms follow the SMILES beside them. *: point of attachment. OBn = c1ccc(CO*)cc1
Log the outcome using a class from active, inactive

Cc1cc(Br)c(N2C3=C(CC4=C2CCCC4=O)C(=O)CCC3)c(Br)c1 = inactive
CCOc1ccc2c(c1)[n+]([O-])c(S(=O)(=O)c1ccc(C)cc1)c(N)[n+]2[O-] = inactive
NC(=S)N/N=C(\CCC(=O)Nc1ccccc1[N+](=O)[O-])CC(=O)c1ccco1 = inactive
O=C1c2c(ccc3c2CCCC3)CC1Cc1ccc2c(c1)CCCC2 (stereo unspecified) = inactive
CC1=C(C(=O)OC(C)C)C(c2ccccc2[N+](=O)[O-])C(C(=O)OC(CO[N+](=O)[O-])CO[N+](=O)[O-])=C(C)N1 (stereo unspecified) = inactive
Nc1nc(N)c(/N=N/c2ccc(C(=O)O)c(O)c2)c(N)n1 = inactive
CCOC(=O)CCC(NC(=O)C(N)Cc1ccc(N(CCCl)CCCl)cc1)C(=O)OCC (stereo unspecified) = active
NC(CCC(=O)OCc1ccccc1)C(=O)NC(CCC(=O)OCc1ccccc1)C(=O)O (stereo unspecified) (H-Glu(OBn)-Glu(OBn)-OH; configuration not given here) = inactive

Query: Outcome logged for C[C@]12CC(c3ccccc3O1)C(C(N)=O)C(=O)N2 (stereo partly specified) in this assay:
Reply: inactive

Query: Please state the recorded outcome for this compound: O=[N+]([O-])C(=C(\Cl)NCCO)/C(Cl)=C(/Cl)Br
Reply: inactive

Query: Any idea what this test logged for N#CSC#Cc1ccc(C#CSC#N)cc1 ?
Reply: inactive

Query: Just curious, what result did CCN(CC)Cc1sc2nc3ccccc3n2c1-c1ccc(OC)cc1 get here?
Reply: inactive
